tested on: Human orthopneumovirus; assay: In vitro inhibitory concentration against HRSV (Human respiratory syncytial virus) by using RSV A2 and the assay is by ELISA; type: functional, organism-based
Checkbox rule: IC50 lower than 100 nM = true; IC50 not lower than 100 nM = false.

Answered cases to consult:
Query block: Regarding NC(=O)CN(CC(N)=O)S(=O)(=O)c1cccc(Nc2nc(Nc3cccc(S(=O)(=O)N(CC(N)=O)CC(N)=O)c3)nc(Nc3ccc(-c4ccc(Nc5nc(Nc6cccc(S(=O)(=O)N(CC(N)=O)CC(N)=O)c6)nc(Nc6cccc(S(=O)(=O)N(CC(N)=O)CC(N)=O)c6)n5)cc4S(=O)(=O)O)c(S(=O)(=O)O)c3)n2)c1 , kindly confirm whether its IC50 is beneath 100 nM.
Result block: true

Query block: Regarding NC(=O)CCN(CCC(N)=O)S(=O)(=O)c1cccc(Nc2nc(Nc3cccc(S(=O)(=O)N(CCC(N)=O)CCC(N)=O)c3)nc(Nc3ccc(-c4ccc(Nc5nc(Nc6cccc(S(=O)(=O)N(CCC(N)=O)CCC(N)=O)c6)nc(Nc6cccc(S(=O)(=O)N(CCC(N)=O)CCC(N)=O)c6)n5)cc4S(=O)(=O)O)c(S(=O)(=O)O)c3)n2)c1 , kindly confirm whether its IC50 is beneath 100 nM.
Result block: true

Query block: Regarding NC(=O)CCNS(=O)(=O)c1cccc(Nc2nc(Nc3cccc(S(=O)(=O)NCCC(N)=O)c3)nc(Nc3ccc(-c4ccc(Nc5nc(Nc6cccc(S(=O)(=O)NCCC(N)=O)c6)nc(Nc6cccc(S(=O)(=O)NCCC(N)=O)c6)n5)cc4S(=O)(=O)O)c(S(=O)(=O)O)c3)n2)c1 , kindly confirm whether its IC50 is beneath 100 nM.
Result block: false

Next, consider the following compound.
Query block: Regarding NC(=O)CNS(=O)(=O)c1cccc(Nc2nc(Nc3cccc(S(=O)(=O)NCC(N)=O)c3)nc(Nc3ccc(-c4ccc(Nc5nc(Nc6cccc(S(=O)(=O)NCC(N)=O)c6)nc(Nc6cccc(S(=O)(=O)NCC(N)=O)c6)n5)cc4S(=O)(=O)O)c(S(=O)(=O)O)c3)n2)c1 , kindly confirm whether its IC50 is beneath 100 nM.
Result block: false
